run_description: Whole blood stability, mouse
Type: in vitro ADME
study_conditions: 60 min
parameter: Whole Blood Stability % Remaining at 37° C. Mouse (%)

Example cases with answers are listed next.
• COC(=O)c1ccc([C@H]2c3c(c4ccccc4n3C)C[C@H](C(=O)OC)N2C(=O)CCl)cc1 = 0.2
• COC(=O)[C@H]1Cc2c([nH]c3ccccc23)[C@H](c2ccc(N[C@]34CC5C[C@H](C[C@H](C5)C3)C4)cc2)N1C(=O)CCl = 51.1

I. CNC(=O)c1ccc([C@H]2c3[nH]c4ccccc4c3C[C@H](C(=O)OC)N2C(=O)CCl)cc1
II. COC(=O)[C@H]1Cc2c([nH]c3ccccc23)[C@H](c2ccc(NCC3CC3)cc2)N1C(=O)CCl
Could you determine which record has the numerically smaller Whole Blood Stability % Remaining at 37° C. Mouse? Candidates: I and II Respond with the label that goes with your answer.
II
(II: 30.0%, I: 48.6%)

###

run_description: Pharmacokinetic (PK) studies in Balb/C nude mice via intraperitoneal injection
study_conditions: male, Balb/c nude, mouse, plasma, ip, 15 mg/kg
parameter: Cmax (ng/mL)
The reply should contain only the number, in ng/mL.

For the compound shown here, COC(=O)c1ccc([C@H]2c3[nH]c4ccccc4c3C[C@H](C(=O)OC)N2C(=O)CCl)cc1 [Example K601, RSL3, reference compound] , give the reported Cmax.
1.33

###

run_description: PK profile, IV plasma concentration and PK parameters
Type: in vivo
study_conditions: Balb/C nude, mouse, iv, 5 mg/kg, 30% Kolliphor EL in water (Table 10b)
Method: The PK profiles of compounds 148, 149, 150, 156 and 169 are shown below. Compound 156 was formulated in 30% Kolliphor EL (Cremophor EL) in water and compounds 148, 149, 150 and 169 were formulated in 30% Kolliphore EL with 1% poloxamar 407 in water. All compounds were dosed at 5 mg/kg. Blood samples were collected at various time points and analyzed using the method described above.
parameter: clearance (mL/min/kg)
Quick reminder: number only, in mL/min/kg, skip the unit.

What value of clearance has been reported for the following compound? C#CC(=O)N1[C@@H](CCCC)Cc2c([nH]c3c(F)cc(F)cc23)[C@@H]1c1ccc(F)cc1 [Compound 156]
14.5

###

run_description: Pharmacokinetic (PK) studies in Balb/C nude mice via intraperitoneal injection
study_conditions: male, Balb/c nude, mouse, plasma, ip, 15 mg/kg, Calculated Concentration, Mean, IP 15 mg/kg, Balb/C nude mice, 1 h, mean of 3 mice
parameter: concentration at 1 h (µg/mL)
Please state the figure in µg/mL; there is no need to write the unit.

Which concentration at 1 h is listed for CN(C)C(=O)[C@H]1Cc2c([nH]c3ccccc23)[C@H](c2ccc([Si](C)(C)C)cc2)N1C(=O)CCl ?
0.0517

###

run_description: Pharmacokinetic (PK) studies via intravenous infusion, Sprague-Dawley rat
Format: in vivo
study_conditions: male, plasma, 1 hour-IV infusion 2 mg/kg, 1.25 hr, one rat
parameter: concentration at 1.25 hr (ng/mL)
The answer is to be given in ng/mL; state only the numeric part.

Would you mind telling me what concentration at 1.25 hr value was observed for COC(=O)[C@H]1Cc2c([nH]c3ccccc23)[C@H](c2ccc(S(=O)(=O)N[C@]34C[C@H]5C[C@H](C[C@H](C5)C3)C4)cc2)N1C(=O)CCl ?
4.95

###

run_description: Pharmacokinetic (PK) studies via intravenous infusion, Sprague-Dawley rat
Format: in vivo
study_conditions: male, plasma, 1 hour-IV infusion 8 mg/kg, 1.0167 hr, one rat
parameter: concentration at 1.0167 hr (ng/mL)
Numbers only; they are read as ng/mL.

Given COC(=O)[C@H]1Cc2c([nH]c3ccccc23)[C@H](c2ccc(S(=O)(=O)N[C@]34C[C@H]5C[C@H](C[C@H](C5)C3)C4)cc2)N1C(=O)CCl , state its recorded concentration at 1.0167 hr.
259

###

Recorded pIC50 values for a group of compounds are listed next.
Test system: MCF-10A
run_description: Cell viability assay (CellTiter Glo), non-tumorigenic breast epithelial cell line MCF-10A
Assay type: cell-based
study_conditions: Homo sapiens, 96 hours
Reminder that pIC50 means the negative base-10 logarithm of the concentration expressed in mol/L.

Worked cases, pIC50 given:
• COC(=O)c1ccc([C@@H]2c3[nH]c4ccc(Cl)cc4c3C[C@H](C(=O)OC)N2C(=O)CCl)cc1 [Example 94] = 6.34
• COC(=O)[C@H]1Cc2c([nH]c3ccccc23)[C@H](c2ccc(C(=O)OCC3CCCCC3)cc2)N1C(=O)CCl [Example 89] = 6.38
• [2H]C([2H])(Cl)C(=O)N1[C@@H](c2ccc(C(=O)OC(C)(C)C)cc2)c2[nH]c3ccccc3c2C[C@@H]1C(=O)OC [BZ] = 6.23
• COC(=O)[C@H]1Cc2c([nH]c3ccccc23)[C@H](c2ccc(S(=O)(=O)N[C@]34C[C@H]5C[C@H](C[C@H](C5)C3)C4)cc2)N1C(=O)CCl [Example 24] = 6.39
• C[C@H]1Cc2c([nH]c3ccccc23)[C@H](c2ccc(C3CCCC3)cc2)N1C(=O)CCl [Example 109] = 5.94

Any idea what pIC50 was measured for COC(=O)[C@H]1Cc2c([nH]c3ccccc23)[C@H](c2ccc(C(=O)NC(C)(C)C)cc2)N1C(=O)CCl [Example 9] ?
5.64

Which pIC50 value belongs to COC(=O)c1ccc([C@@H]2c3[nH]c4ccc(F)cc4c3C[C@H](C(=O)OC)N2C(=O)CCl)cc1 [Example 92] ?
5.94

Look at this compound and give its reported pIC50. COC(=O)[C@H]1Cc2c([nH]c3ccccc23)[C@H](c2ccc(S(=O)(=O)N3CC(O)C3)cc2)N1C(=O)CCl [Example 37]
5.26

Value lookup for pIC50; key = COC(=O)[C@H]1Cc2c([nH]c3ccccc23)[C@H](c2ccc(S(=O)(=O)N3CCC(O)CC3)cc2)N1C(=O)CCl [Example 35]
5.38

###

run_description: Whole blood stability, mouse
Format: in vitro ADME
study_conditions: 60 min
parameter: Whole Blood Stability % Remaining at 37° C. Mouse (%)

• COC(=O)c1ccc([C@@H]2c3[nH]c4ccc(Cl)cc4c3C[C@H](C(=O)OC)N2C(=O)CCl)cc1 = 0.0

P. COc1ccc2[nH]c3c(c2c1)C[C@H](C)N(C(=O)CCl)[C@H]3c1ccc(N2CCOCC2)cc1
Q. CC(C)(C)OC(=O)c1ccc([C@H]2c3[nH]c4ccccc4c3C[C@H](C(=O)OC(C)(C)C)N2C(=O)CCl)cc1
I would appreciate it if you could say which entry, P or Q , has the lower Whole Blood Stability % Remaining at 37° C. Mouse value. // respond with label for picked entry
Q
(Q: 21.2%, P: 50.0%)

A. COC(=O)c1ccc([C@H]2c3[nH]c4ccc(F)cc4c3C[C@H](C(=O)OC)N2C(=O)CCl)cc1
B. COC(=O)c1ccc([C@H]2c3[nH]c4ccccc4c3C[C@H](C(=O)O)N2C(=O)CCl)cc1
Please compare: A and B . Report which one has the smaller Whole Blood Stability % Remaining at 37° C. Mouse value. // output: label of the selected item
A
(A: 0.0%, B: 23.6%)

P. CN(C)C(=O)c1ccc([C@H]2c3[nH]c4ccccc4c3C[C@H](C(N)=O)N2C(=O)CCl)cc1
Q. CC(C)(C)OC(=O)[C@H]1Cc2c([nH]c3ccccc23)[C@H](c2ccc([N+](=O)[O-])cc2)N1C(=O)CCl
R. COC(=O)[C@H]1Cc2c([nH]c3ccccc23)[C@H](c2ccc(OC(C)=O)cc2)N1C(=O)CCl
Place the items in sequence of falling Whole Blood Stability % Remaining at 37° C. Mouse. Response format: the labels, sorted as the prompt asks.
P, Q, R
(P: 67.0%, Q: 38.6%, R: 0.0%)

A. COC(=O)[C@H]1Cc2c([nH]c3ccccc23)[C@H](c2ccc(O)cc2)N1C(=O)CCl
B. COC(=O)[C@H]1Cc2c([nH]c3ccccc23)[C@H](c2ccc(C(=O)OC(C)(C)C)cc2)N1C(=O)/C=C/CCl
Of A and B , which one carries the higher reported Whole Blood Stability % Remaining at 37° C. Mouse? Provide the label of your selected option as the answer.
A

I. CN(C)C(=O)[C@H]1Cc2c([nH]c3ccccc23)[C@H](C2CCN(C(=O)OC(C)(C)C)CC2)N1C(=O)CCl
II. COC(=O)[C@H]1Cc2c([nH]c3ccccc23)[C@H](c2ccc(C(=O)OCC3CC3)cc2)N1C(=O)CCl
Kindly compare I with II and tell me which has the lower Whole Blood Stability % Remaining at 37° C. Mouse figure. # reply format: chosen label
II

a. C[C@H]1Cc2c([nH]c3ccccc23)[C@H](c2ccc(N3CCOCC3)cc2)N1C(=O)CCl
b. C[C@H]1Cc2c([nH]c3ccc(C#N)cc23)[C@H](c2ccc(N3CCOCC3)cc2)N1C(=O)CCl
Just tell me: smaller Whole Blood Stability % Remaining at 37° C. Mouse value, a or b ? Lab log: write the label of the selected item as the result.
b
(b: 0.0%, a: 56.6%)

A. CC(=O)Nc1ccc([C@@H]2c3[nH]c4ccccc4c3C[C@H](C(=O)N(C)C)N2C(=O)CCl)cc1 [Compound 71a]
B. COC(=O)[C@H]1Cc2c([nH]c3ccccc23)[C@H](c2ccc(C(=O)O)cc2)N1C(=O)CCl
# query: argmin of Whole Blood Stability % Remaining at 37° C. Mouse over A and B Could you answer with the label of the item you picked?
A
(A: 43.8%, B: 63.9%)

P. COC(=O)[C@H]1Cc2c([nH]c3ccccc23)[C@H](c2ccc(C(=O)N[C@]34CC5C[C@H](C[C@H](C5)C3)C4)cc2)N1C(=O)CCl
Q. C=CCOC(=O)c1ccc([C@H]2c3[nH]c4ccccc4c3C[C@H](C(=O)OC)N2C(=O)CCl)cc1
Which shows the larger Whole Blood Stability % Remaining at 37° C. Mouse value: P or Q ? To answer, give the label that identifies your chosen option.
P
